# procedure-text: Compound cytotoxicity, XTT-based colorimetric assay
# Format: cell-based
# particulars: human; uninfected MT2 cells, day 4, XTT; read-out: CC50
# Protocol: Compound cytotoxicity and the corresponding CC50 values were determined using the same protocol as described in the antiviral assay except that uninfected cells were used. Cytotoxicity was assessed on day 4 in uninfected MT2 cells by using a XTT (2,3-bis[2-Methoxy-4-nitro-5-sulfophenyl]-2H-tetrazolium-5-carboxyanilide inner salt)-based colorimetric assay (Sigma-Aldrich, St Louis, Mo.).
CC50 at 4 days values for the compounds below.

Record excerpt, results attached:
Cn1nc(NS(C)(=O)=O)c2c(Cl)ccc(-n3c([C@H](Cc4cc(F)cc(F)c4)NC(=O)Cn4nc(C(F)F)c5c4C(F)(F)[C@@H]4C[C@H]54)nc4cc(N5CCS(=O)(=O)CC5)ccc4c3=O)c21 (atropisomer, axis not shown; (P)) [Example 13] | > 10000 nM
Cn1nc(NS(C)(=O)=O)c2c(Cl)ccc(-n3c([C@H](Cc4cc(F)cc(F)c4)NC(=O)Cn4nc(C(F)F)c5c4C(F)(F)[C@@H]4C[C@H]54)nc4cc(N5CC(C)(C)OC(C)(C)C5)ccc4c3=O)c21 (atropisomer, axis not shown; (P)) [Example 57] | > 500 nM
C[C@@H]1CN(c2ccc3c(=O)n(-c4ccc(Cl)c5c(NS(C)(=O)=O)nn(CC(F)F)c45)c([C@H](Cc4cc(F)cc(F)c4)NC(=O)Cn4ccc(C5CC5)n4)nc3c2)C[C@H](C)O1 (atropisomer, axis not shown; (P)) [Example 48] | > 500 nM
C[C@@H]1CN(c2ccc3c(=O)n(-c4ccc(Cl)c5c(NS(C)(=O)=O)nn(CC(F)(F)F)c45)c([C@H](Cc4cc(F)cc(F)c4)NC(=O)Cn4nc(C(F)F)c5c4C(F)(F)[C@@H]4C[C@H]54)nc3c2)C[C@H](C)O1 (atropisomer, axis not shown; (P)) [Example 58] | > 500 nM
C[C@@H]1CN(c2ccc3c(=O)n(-c4ccc(Cl)c5c(NS(C)(=O)=O)nn(C)c45)c([C@H](Cc4cc(F)cc(F)c4)NC(=O)Cn4nc(C(F)(F)F)c5c4C(F)(F)[C@@H]4C[C@H]54)nc3c2)C[C@H](C)O1 (atropisomer, axis not shown; (P)) [Example 54] | > 500 nM
COC1CCN(c2ccc3c(=O)n(-c4ccc(Cl)c5c(NS(C)(=O)=O)nn(C)c45)c([C@H](Cc4cc(F)cc(F)c4)NC(=O)Cn4nc(C(F)F)c5c4C(F)(F)[C@@H]4C[C@H]54)nc3c2)CC1 (atropisomer, axis not shown; (P)) [Example 28] | > 500 nM
Cc1cc(C(F)F)nn1C(C)C(=O)N[C@@H](Cc1cc(F)cc(F)c1)c1nc2cc(N3C[C@@H](C)O[C@@H](C)C3)ccc2c(=O)n1-c1ccc(Cl)c2c(NS(C)(=O)=O)nn(CC(F)F)c12 (some centres unmarked) [Example 51] | > 500 nM
O=C(Cn1nc(C(F)F)cc1C(F)F)N[C@@H](Cc1cc(F)cc(F)c1)c1nc2cc(N3CCCCC3)ccc2c(=O)n1-c1ccc(Cl)c2c(NS(=O)(=O)C3CC3)nn(CC(F)F)c12 (atropisomer, axis not shown; (P)) [Example 37] | > 1000 nM

Which measured CC50 at 4 days value corresponds to Cn1nc(NS(C)(=O)=O)c2c(Cl)ccc(-n3c([C@H](Cc4cc(F)cc(F)c4)NC(=O)Cn4nc(C(F)F)c5c4C(F)(F)[C@@H]4C[C@H]54)nc4cc(N5CCCCCC5)ccc4c3=O)c21 (atropisomer, axis not shown; (P)) [Example 2] ?
> 500 nM

Which measured CC50 at 4 days value corresponds to Cn1nc(NS(C)(=O)=O)c2c(Cl)ccc(-n3c([C@H](Cc4cc(F)cc(F)c4)NC(=O)Cn4nc(C(F)F)c5c4C(F)(F)[C@@H]4C[C@H]54)nc4cc(N5CCC6(CCC6)CC5)ccc4c3=O)c21 (atropisomer, axis not shown; (P)) [Example 34] ?
> 1000 nM

Which measured CC50 at 4 days value corresponds to COC1CCCN(c2ccc3c(=O)n(-c4ccc(Cl)c5c(NS(C)(=O)=O)nn(C)c45)c([C@H](Cc4cc(F)cc(F)c4)NC(=O)Cn4nc(C(F)F)c5c4C(F)(F)[C@@H]4C[C@H]54)nc3c2)C1 (some centres unmarked) [Example 29] ?
> 500 nM

Which measured CC50 at 4 days value corresponds to C[C@@H]1CN(c2ccc3c(=O)n(-c4ccc(Cl)c5c(NS(=O)(=O)C6CC6)nn(CC(F)(F)F)c45)c([C@H](Cc4cc(F)cc(F)c4)NC(=O)Cn4nc(C(F)F)c5c4C(F)(F)[C@@H]4C[C@H]54)nc3c2)C[C@H](C)O1 (atropisomer, axis not shown; (P)) [Example 62] ?
> 500 nM
